assay: MM1S cell viability effects, profiling panel, calcein-AM fluorescence, 48 h, basal (AID 1165); settings: higher = more signal;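 also: viability of MM1S multiple myeloma cells under basal unstimulated conditions; test concentration not given here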
Param threshold (-0.5) applies to z-score; output class 1 when value >= threshold, class 0 when value < threshold.

Q: Evaluate C=CCC(OC(C)=O)[C@@H]1[C@@H](N(Cc2ccc(-c3ccccc3)cc2)C(=O)c2ccc(C)cc2)c2cc(OCCCO)ccc2N1C(=O)Cc1ccc2ccccc2c1 (some centres undefined) : z-score at minimum -0.5?
Result: class 1

Q: Then COCC1C2CC[C@H]3C(OCc4ccc(OC)cc4)OC[C@]4(C)[C@H]3C2=C(CN4C(=O)OC(C)(C)C)[C@H](C)C1COC (some centres undefined) ?
Result: class 0

Q: Then COc1cc(NN2C(C(O)C3CCCCC3)C=CC3C(=O)N(C)C(=O)C32)cc(OC)c1OC (centres undefined) ?
Result: class 1

Q: Then O=C1C2C=CC(C(O)c3cccc(O)c3)N(Nc3ccccc3)C2C(=O)N1c1ccccc1 (centres undefined) ?
Result: class 1

Q: Then Cc1ccccc1C(O)C1C=CC2C(=O)N(c3ccccc3)C(=O)C2N1Nc1ccc([N+](=O)[O-])cc1 (centres undefined) ?
Result: class 1

Q: Then COC(=O)C(CC#Cc1ccc2c(c1)[C@]1(C(=O)N2)[C@H](c2ccc(O)cc2)N2[C@H](c3ccccc3)[C@H](c3ccccc3)OC(=O)[C@H]2[C@@H]1C(=O)N1CCCCCCC1)C(=O)OC ?
Result: class 1

Q: Then [N-]=[N+]=NCc1ccccc1[C@@H]1OC(c2ccc(OCCCO)cc2)=N[C@]1(Cc1ccccc1N=[N+]=[N-])C(=O)N1CCCCC1 ?
Result: class 0

Q: Then COC(=O)[C@@]1(Cc2ccc(F)cc2)[C@H]2c3cc(C(=O)N4CCCC4)n(CC4CC4)c3C[C@H]2CN1C(=O)c1ccccc1 ?
Result: class 0

Q: Then C=C(/C(=C/C[C@@H](OC(=O)c1ccncc1)c1cccc(OCCO)c1)c1cnc2ccccc2c1)C(C)C ?
Result: class 0

Q: Then COC(=O)C(CC#Cc1ccc2c(c1)[C@]1(C(=O)N2)[C@H](c2ccc(OCCO)cc2)N2[C@H](c3ccccc3)[C@H](c3ccccc3)OC(=O)[C@H]2[C@@H]1C(=O)N1CCN(c2ncccn2)CC1)C(=O)OC ?
Result: class 0

Q: Then COc1ccc(C(O)C2C=CC3C(=O)N(c4ccccc4)C(=O)C3N2Nc2ccc(C(C)C)cc2)c2ccccc12 (centres undefined) ?
Result: class 1

Q: Then [N-]=[N+]=Nc1ccccc1C[C@@]1(C(=O)O)N=C(c2ccc(OCCCO)cc2)O[C@@H]1c1ccccc1N=[N+]=[N-] ?
Result: class 0

Q: Then CC(C)CCC[C@@H](C)[C@H]1CC[C@@]2(C)C3=C(CC[C@]12C)[C@@]1(C)CC[C@H](OC(=O)c2ccccc2)C(C)(C)C1CC3 (some centres undefined) ?
Result: class 1

Q: Then CN1C(=O)C2C=CC(C(O)c3ccc(F)cc3)N(NC(=O)OC(C)(C)C)C2C1=O (centres undefined) ?
Result: class 0

Q: Then CC(C)C(=C=CC[C@@H](O)c1cccc(OCCO)c1)C[C@@H](O)COCc1ccccc1 ?
Result: class 1

Q: Then CCCNC(=O)[C@@]1(C)c2ccccc2C(=O)N(Cc2ccccc2)[C@H]1c1ccc(CO)cc1 ?
Result: class 0

Q: Then O=C1[C@@]23C=C(Br)[C@H](C[C@@H]2COC3)[C@@]12CO2 ?
Result: class 0

Q: Then O=C1C2C=CC(C(O)c3ccco3)N(Nc3ccccc3)C2C(=O)N1c1ccccc1 (centres undefined) ?
Result: class 1

Q: Then C[C@@H]1ON(c2ccc(I)cc2)[C@H](c2ccc(OC(=O)OC(C)(C)C)cc2)[C@H]1C(=O)N1C(=O)OC[C@H]1Cc1ccccc1 ?
Result: class 1

Q: Then COC(=O)[C@@]1(Cc2ccc(F)cc2)[C@H]2c3cc(C(=O)N(C)C)n(Cc4ccc(O)c(OC)c4)c3C[C@H]2CN1C(=O)c1ccccc1 ?
Result: class 1

Q: Then CC(C)[C@H]1NC(=O)[C@@]23C(=O)N[C@@H](Cc4ccccc4)C2[C@H](C)[C@@]2(C)O[C@H]2C3/C=C/CCC/C=C/CNC(=O)[C@H](Cc2ccccc2)NC1=O (some centres undefined) ?
Result: class 0

Q: Then [N-]=[N+]=Nc1ccccc1C[C@]1(C(=O)NCc2ccccc2)COC(c2ccc(OCCCO)cc2)=N1 ?
Result: class 0

Q: Then COCCOC(=O)N1C(=O)[C@@]2(c3cc(C#CC4=CCCCC4)ccc31)[C@H](c1ccc(O)cc1)N1[C@H](c3ccccc3)[C@H](c3ccccc3)OC(=O)[C@H]1[C@@H]2C(=O)NC[C@H](O)c1ccccc1 ?
Result: class 0

Q: Then CC(=O)NCCCC[C@@H]1NC(=O)[C@@H]2C[C@H](C(=O)NCCCCCCN)[C@H](c3cccc(OCCO)c3)N2C1=O ?
Result: class 1

Q: Then COCCOC(=O)N1C(=O)[C@@]2(c3cc(C#CCC(C(=O)OC)C(=O)OC)ccc31)[C@H](C(=O)NC[C@H](O)c1ccccc1)[C@H]1C(=O)O[C@H](c3ccccc3)[C@H](c3ccccc3)N1[C@@H]2c1ccc(O)cc1 ?
Result: class 0

Q: Then NCCCCCNC(=O)[C@@H]1C[C@@H]2C(=O)N3CCC[C@H]3C(=O)N2[C@@H]1c1ccc(O)cc1 ?
Result: class 1

Q: Then [N-]=[N+]=Nc1ccccc1C[C@]1(C(=O)O)N=C(c2ccc(OCCCO)cc2)O[C@H]1c1ccccc1 ?
Result: class 1

Q: Then CC(C)(C)OC(=O)CC[C@]1(C(=O)N2CCCCC2)COC(c2ccc(OCCCO)cc2)=N1 ?
Result: class 1

Q: Then O=C1OCCC/C=C\[C@H]2OC34C=CCN(c5ccc6ccccc6c5)C(=O)[C@H]3N(CCCO)C(=O)[C@@H]4C12 (some centres undefined) ?
Result: class 1
